Provenance of the data: the supplement of paper PMC3334620

Target: Sut1 (UniProt P53032)
Sequence: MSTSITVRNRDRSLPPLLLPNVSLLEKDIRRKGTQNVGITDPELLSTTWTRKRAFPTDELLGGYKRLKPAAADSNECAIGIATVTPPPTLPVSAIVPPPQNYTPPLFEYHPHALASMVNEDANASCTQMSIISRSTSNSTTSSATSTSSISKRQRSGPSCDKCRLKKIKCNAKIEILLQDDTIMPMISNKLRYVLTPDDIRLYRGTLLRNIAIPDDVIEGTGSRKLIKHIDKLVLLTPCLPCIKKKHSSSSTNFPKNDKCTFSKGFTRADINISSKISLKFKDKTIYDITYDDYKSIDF
Assay: PBM E-score (8-mer binding enrichment) (E-score (-0.5 to 0.5)); higher = stronger / more preferred TF binding
Conditions: protein concentration: 200 nM; construct: GST-full length
Over roughly 33,000 sequences, “E-score (-0.5 to 0.5)” has its median near -0.017; the highest 2% begin near 0.3. The sample as a whole holds a higher share of the highest values than the screen did.
observed_property: PBM E-score
Number only, no unit.

>>> quantitative_readout("ATAAATAT")
0.341
>>> quantitative_readout("CAAAATTA")
0.241
>>> quantitative_readout("AAAATAAC")
0.12
>>> quantitative_readout("CTAAATTA")
0.24
>>> quantitative_readout("ATAAATTA")
0.326

stdin: # query: PBM E-score of entry ATAAATTG
stdout: 0.268

stdin: Give the measured PBM E-score of ACACCTCG .
stdout: -0.103

stdin: Which measured PBM E-score value corresponds to ATCCGGTC ?
stdout: -0.00108

stdin: Suppose we examine the sequence AAAATAAA ; what PBM E-score value has been reported?
stdout: 0.347

stdin: For the sequence GTCCGGTA , what PBM E-score is on record?
stdout: 0.373

stdin: // lookup PBM E-score for ATAAAAAT
stdout: 0.252
